Listing: growth of selected compounds
# System: M14 melanoma
# method-notes: NCI-60 one-dose screen, 48 h (100 = growth as untreated, 0 = no growth, -100 = all killed)
# recorded-conditions: 10 µM unless noted
This is part of a sample that, as a whole, favours compounds with a hit. Of some 83,000 tested, about 20% had one in any assay.

{"columns": ["compound", "units-of-measure", "growth"],
 "data": [
  ["COC(=O)c1ccc(NC(=O)Nc2ccc(C(=O)OC)cc2)cc1", "%", 103],
  ["Nc1nc(N)c(N=Nc2ccccc2)c(-c2ccccc2)n1", "%", 84.5],
  ["FC(F)(F)c1ccc(Cn2cc(CSc3nc4ccccc4s3)nn2)cc1", "%", 100],
  ["CC1(C)NCCC[C@]2(C)[C@H]3CC[C@H]4[C@H]5[C@H](C(=O)/C=C/c6cccnc6)CCC[C@]5(CO)CC[C@@]4(C)[C@]3(C)CC[C@@H]12", "%", 85.8],
  ["Nn1c(=O)c(=O)[nH]c2c(cnn2-c2ccccc2)c1=O", "%", 110],
  ["COC(=O)c1nc(-c2ccccc2)oc1S(=O)(=O)NCC(c1ccc(Cl)cc1)N1CCOCC1 (stereo not drawn)", "%", 35],
  ["COc1cc(-c2nc3sccn3c2-c2ccnc(NCCNS(=O)(=O)c3ccc(Cl)cc3)n2)ccc1F", "%", 21.5],
  ["Cc1cccc(N2CCC(=O)NC2=S)c1", "%", 97.3],
  ["CC(=O)/C(=C/c1ccc([N+](=O)[O-])cc1)C(=O)c1ccccc1", "%", 79.8],
  ["COc1ccc2c(c1)c(-c1nc(-c3c[nH]c4ncccc34)cs1)cn2CCCN1CCOCC1", "%", 10],
  ["CCN(CC)CCN1C(=O)c2c(c(C)c3c(oc4ccc(OC)cc43)c2C)C1=O", "%", 103],
  ["O=[N+]([O-])c1ccc(-c2cn3nc(-c4c[nH]c5ccccc45)sc3n2)cc1", "%", 97],
  ["COc1ccc(C2=CC(c3cc(OC)c(OC)c(OC)c3)n3ncnc3N2)cc1 (stereo not drawn)", "%", -2.18]
]}

====

# System: SK-MEL-2 melanoma
# method-notes: NCI-60 one-dose screen, 48 h (100 = growth as untreated, 0 = no growth, -100 = all killed)
# recorded-conditions: 10 µM unless noted
About 83,000 compounds went through this panel and 20% of them were active in at least one assay; those are over-represented in the sample as a whole.
Listing: growth of selected compounds
result-type: growth (%)

{"columns": ["smiles-text", "recorded-value"],
 "data": [
  ["COC(=O)c1c2c(c(C)[n+]([O-])c1C)C(=O)C(NCc1ccc(OC)cc1)=CC2=O", 62.3],
  ["CN1CCN(CCCOc2cccc3nc(Nc4ccc(F)c(F)c4)ccc23)CC1", -49.7],
  ["Clc1ccc(-c2cc(-c3ccccc3)nc(NCCNc3ccnc4cc(Cl)ccc34)n2)cc1", 78.8],
  ["CCOC(=O)/C=C1\\S/C(=N\\Nc2cc(=O)[nH]c3ccccc23)N(c2ccccc2)C1=O", 110],
  ["C=C(C)[C@@H]1CC[C@]2(COC(C)=O)CC[C@]3(C)[C@H](CC[C@@H]4[C@@]5(C)CCCN(C(C)=O)C(C)(C)[C@@H]5CC[C@]43C)[C@@H]12", 61.3]
]}
